assayed_system: HLA-B*51:01
protocol_text: IEDB peptide-MHC binding, purified MHC/competitive/fluorescence; filed as Kd, often an IC50 or EC50 that approximates it; bounds were set here for any values at or beyond the usual limits of such assays
condition_context: source organism: Choclo virus
pKd: −log10 of the molar value.
recorded_endpoint: pKd

Entry VMGVIGFGF , pKd reported as ≤ 4.70

###

assayed_system: HLA-B*15:02
protocol_text: IEDB peptide-MHC binding, purified MHC/competitive/fluorescence; filed as Kd, often an IC50 or EC50 that approximates it; bounds were set here for any values at or beyond the usual limits of such assays
condition_context: source organism: Shigella flexneri
recorded_endpoint: Kd (nM)
Reply with just the number (in nM).

Entry FILSGRFSY , Kd reported as 396

###

assayed_system: HLA-A*02:01
protocol_text: IEDB peptide-MHC binding, purified MHC/competitive/fluorescence; filed as Kd, often an IC50 or EC50 that approximates it; bounds were set here for any values at or beyond the usual limits of such assays
condition_context: source organism: Rickettsia felis URRWXCal2
recorded_endpoint: pKd
Would you please state pKd, meaning minus log10 of the concentration in mol/L, as a bare number?

Entry QYLFSLTYV , pKd reported as 5.93

###

assayed_system: HLA-A*02:01
protocol_text: IEDB peptide-MHC binding, purified MHC/direct/fluorescence; filed as Kd, often an IC50 or EC50 that approximates it; bounds were set here for any values at or beyond the usual limits of such assays
condition_context: source organism: Giardia lamblia ATCC 50803
pKd: −log10 of the molar value.
recorded_endpoint: pKd

Please review the following examples before continuing.
polymer_sequence | assayed_system | assay_result
KSNRIPFLY | HLA-A*02:01 | ≤ 4.70
IFKNLTKPL | HLA-A*02:01 | ≤ 4.70

// switching to the query sequence
Hey, HLA-A*02:01 data for FMGRLGPEY : pKd came out at ≤ 4.70

###

assayed_system: HLA-A*24:03
protocol_text: IEDB peptide-MHC binding, purified MHC/competitive/fluorescence; filed as Kd, often an IC50 or EC50 that approximates it; bounds were set here for any values at or beyond the usual limits of such assays
condition_context: source organism: Escherichia coli APEC O1
recorded_endpoint: pKd
Would you please state pKd, meaning minus log10 of the concentration in mol/L, as a bare number?

Entry HYGTEGQEF , pKd reported as 8.54

###

assayed_system: HLA-A*02:03
protocol_text: IEDB peptide-MHC binding, purified MHC/competitive/fluorescence; filed as Kd, often an IC50 or EC50 that approximates it; bounds were set here for any values at or beyond the usual limits of such assays
condition_context: source organism: Mycobacterium tuberculosis variant bovis BCG str. Pasteur 1173P2
recorded_endpoint: Kd

polymer_sequence | Kd
KPIPHRTVL | ≥ 20 µM

Entry SLYEKSGSV , Kd reported as ≤ 0.001 µM

###

assayed_system: HLA-B*18:01
protocol_text: IEDB peptide-MHC binding, purified MHC/direct/fluorescence; filed as Kd, often an IC50 or EC50 that approximates it; bounds were set here for any values at or beyond the usual limits of such assays
condition_context: source organism: Yellow fever virus
recorded_endpoint: pKd
Would you please state pKd, meaning minus log10 of the concentration in mol/L, as a bare number?

Entry QEKWMTGRM , pKd reported as 5.52

###

assayed_system: HLA-B*15:42
protocol_text: IEDB peptide-MHC binding, purified MHC/competitive/fluorescence; filed as Kd, often an IC50 or EC50 that approximates it; bounds were set here for any values at or beyond the usual limits of such assays
condition_context: source organism: Mycobacterium tuberculosis str. Haarlem
recorded_endpoint: Kd

Entry YTPEQWWPF , Kd reported as ≥ 5 µM

###

assayed_system: HLA-B*15:01
protocol_text: IEDB peptide-MHC binding, purified MHC/competitive/fluorescence; filed as Kd, often an IC50 or EC50 that approximates it; bounds were set here for any values at or beyond the usual limits of such assays
condition_context: source organism: Yersinia pestis Antiqua
recorded_endpoint: pKd
Would you please state pKd, meaning minus log10 of the concentration in mol/L, as a bare number?

Entry AMLDRILHH , pKd reported as 5.21

###

assayed_system: HLA-B*27:05
protocol_text: IEDB peptide-MHC binding, purified MHC/direct/fluorescence; filed as Kd, often an IC50 or EC50 that approximates it; bounds were set here for any values at or beyond the usual limits of such assays
condition_context: source organism: Mycobacterium tuberculosis
recorded_endpoint: Kd

Please review the following examples before continuing.
polymer_sequence | Kd
QVFKGVVIR | ≥ 20 µM
APAKKAAPA | ≥ 20 µM
LPAEVRAAF | ≥ 20 µM

Entry SPRSRNRSF , Kd reported as ≥ 20 µM

###

assayed_system: HLA-B*15:01
protocol_text: IEDB peptide-MHC binding, purified MHC/direct/fluorescence; filed as Kd, often an IC50 or EC50 that approximates it; bounds were set here for any values at or beyond the usual limits of such assays
condition_context: source organism: Vibrio vulnificus YJ016
recorded_endpoint: Kd

Entry KRFYQTVGF , Kd reported as ≥ 20 µM

###

// reported Kd per item
assayed_system: HLA-A*69:01
protocol_text: IEDB peptide-MHC binding, purified MHC/direct/fluorescence; filed as Kd, often an IC50 or EC50 that approximates it; bounds were set here for any values at or beyond the usual limits of such assays
condition_context: source organism: Vibrio cholerae

polymer_sequence | Kd
GKFFAQAFL | ≥ 20 µM

// switching to the query sequence
Hey, HLA-A*69:01 data for SVMPAWQEK : Kd came out at ≥ 20 µM

###

// reported Kd per item
assayed_system: HLA-A*24:02
protocol_text: IEDB peptide-MHC binding, purified MHC/competitive/radioactivity; filed as Kd, often an IC50 or EC50 that approximates it; bounds were set here for any values at or beyond the usual limits of such assays
condition_context: source organism: Dengue virus 1 Brazil/97-11/1997
Reply with just the number (in nM).

polymer_sequence | assayed_system | Kd / nM
IMMLKLLTEF | HLA-A*24:02 | 309

Hey, HLA-A*24:02 data for RPMFAVGLLF : Kd came out at 416

###

assayed_system: HLA-A*02:01
protocol_text: IEDB peptide-MHC binding, purified MHC/direct/fluorescence; filed as Kd, often an IC50 or EC50 that approximates it; bounds were set here for any values at or beyond the usual limits of such assays
condition_context: source organism: Escherichia coli O157:H7 str. EC869
recorded_endpoint: Kd

Entry YGSWFGLIY , Kd reported as ≥ 20 µM

###

// reported Kd per item
assayed_system: HLA-B*27:03
protocol_text: IEDB peptide-MHC binding, purified MHC/competitive/fluorescence; filed as Kd, often an IC50 or EC50 that approximates it; bounds were set here for any values at or beyond the usual limits of such assays
condition_context: source organism: Zaire ebolavirus

polymer_sequence | assay_result
KLWTSISCA | ≥ 20 µM

// switching to the query sequence
Entry SKLRALLTL , Kd reported as ≥ 20 µM

###

assayed_system: HLA-A*24:02
protocol_text: IEDB peptide-MHC binding, purified MHC/competitive/radioactivity; filed as Kd, often an IC50 or EC50 that approximates it; bounds were set here for any values at or beyond the usual limits of such assays
condition_context: source organism: Dengue virus 4 Philippines/H241/1956
recorded_endpoint: Kd (nM)
Reply with just the number (in nM).

Entry RFSTSLLFL , Kd reported as 77.1

Entry LYAVATTIL , Kd reported as 79.5

Entry FTPEAKNSTF , Kd reported as 3020

###

assayed_system: HLA-B*39:01
protocol_text: IEDB peptide-MHC binding, purified MHC/competitive/fluorescence; filed as Kd, often an IC50 or EC50 that approximates it; bounds were set here for any values at or beyond the usual limits of such assays
condition_context: source organism: Reston ebolavirus - Reston (1989)
pKd: −log10 of the molar value.
recorded_endpoint: pKd

Entry FSDLCNFLI , pKd reported as ≤ 4.70

###

assayed_system: HLA-B*18:01
protocol_text: IEDB peptide-MHC binding, purified MHC/competitive/radioactivity; filed as Kd, often an IC50 or EC50 that approximates it; bounds were set here for any values at or beyond the usual limits of such assays
condition_context: source organism: SARS coronavirus Tor2
recorded_endpoint: Kd (µM)
Reply with just the number (in µM).

Please review the following examples before continuing.
polymer_sequence | Kd / µM
VEAVMYMGT | 2.47
FEKMVSLLSV | 0.145

Entry QELYSPLFLI , Kd reported as 4.91

###

assayed_system: HLA-A*31:01
protocol_text: IEDB peptide-MHC binding, purified MHC/competitive/radioactivity; filed as Kd, often an IC50 or EC50 that approximates it; bounds were set here for any values at or beyond the usual limits of such assays
condition_context: source organism: SARS coronavirus Tor2
recorded_endpoint: Kd (µM)
Reply with just the number (in µM).

Hey, HLA-A*31:01 data for MSLYMAISPK : Kd came out at 0.0694

Hey, HLA-A*31:01 data for KTQFNYFKK : Kd came out at 0.00232

Hey, HLA-A*31:01 data for RAFDIYNEK : Kd came out at 0.106

Hey, HLA-A*31:01 data for ALALLLLDR : Kd came out at 8
